- System: MCF7
- assay.procedure: Antiproliferative activity against ER-positive human MCF7 cells assessed as inhibition of cell growth incubated for 48 hrs by CCK8 assay
- Assay type: functional, cell-based
- assay.conditions: MCF7, 48 h
value.kind: IC50 (µM)

Past entries and their recorded results:
O=C(c1ccc(OCCNC/C=C/C(=O)N2CCCC2)cc1)c1c(-c2ccc(O)cc2)sc2cc(O)ccc12 ... 24.2
O=C(c1ccc(OCCNC/C=C/C(=O)N2CCC2)cc1)c1c(-c2ccc(O)cc2)sc2cc(O)ccc12 ... 24.2

I: C/C=C/C(=O)N1CC(Oc2ccc(C(=O)c3c(-c4ccc(O)cc4)sc4cc(O)ccc34)cc2)C1
II: O=C(c1ccc(OC2CN(C/C=C/C(=O)N3CCCCC3)C2)cc1)c1c(-c2ccc(O)cc2)sc2cc(O)ccc12
**Query** Please indicate which entry, I or II , has the lower recorded IC50 value. Write down the label attached to your selection.
**Result** II
(II: 1.31 µM, I: 23.7 µM)

----------
- System: Ishikawa
- assay.procedure: Antiproliferative activity against ER-positive human Ishikawa cells assessed as inhibition of cell growth incubated for 48 hrs by CCK8 assay
- Format: functional, cell-based
value.kind: IC50 (µM)
Reply with just the number (in µM).

Look over these answered cases.
O=C(c1ccc(OCCNC/C=C/C(=O)N2CCCCC2)cc1)c1c(-c2ccc(O)cc2)sc2cc(O)ccc12 ... 6.34
CN(C)C(=O)/C=C/CN1CC(Oc2ccc(C(=O)c3c(-c4ccc(O)cc4)sc4cc(O)ccc34)cc2)C1 ... 29.6
O=C(c1ccc(OC2CN(C/C=C/C(=O)N3CCCCC3)C2)cc1)c1c(-c2ccc(O)cc2)sc2cc(O)ccc12 ... 10.3
C=C(C)C(=O)NCCOc1ccc(C(=O)c2c(-c3ccc(O)cc3)sc3cc(O)ccc23)cc1 ... 29.2
C=CC(=O)N1CC(Oc2ccc(C(=O)c3c(-c4ccc(O)cc4)sc4cc(O)ccc34)cc2)C1 ... 16.6

**Query** Consider the molecule shown here: C=C(C)C(=O)N1CC(Oc2ccc(C(=O)c3c(-c4ccc(O)cc4)sc4cc(O)ccc34)cc2)C1 What is its recorded IC50?
**Result** 22.6

**Query** What does the data say about its IC50? Entry: O=C(c1ccc(OC2CN(C/C=C/C(=O)N3CCC3)C2)cc1)c1c(-c2ccc(O)cc2)sc2cc(O)ccc12
**Result** 25.8

**Query** IC50 for C/C=C/C(=O)N1CC(Oc2ccc(C(=O)c3c(-c4ccc(O)cc4)sc4cc(O)ccc34)cc2)C1 ?
**Result** 22.2

**Query** Please report the recorded IC50 for CC/C(=C(\c1ccccc1)c1ccc(OCCN(C)C)cc1)c1ccccc1 .
**Result** 14.6

**Query** What value of measured IC50 is listed for CNC(=O)/C=C/CN1CC(Oc2ccc(C(=O)c3c(-c4ccc(O)cc4)sc4cc(O)ccc34)cc2)C1 ?
**Result** 45

**Query** Requested field: IC50. Item: COCCNC(=O)/C=C/CNCCOc1ccc(C(=O)c2c(-c3ccc(O)cc3)sc3cc(O)ccc23)cc1
**Result** 55.3

----------
- Test system: MCF7
- assay.procedure: Antiproliferative activity against ER-positive human MCF7 cells assessed as inhibition of cell growth incubated for 48 hrs by CCK8 assay
- Type: functional, cell-based
- assay.conditions: MCF7, 48 h
value.kind: IC50 (µM)

# example entries with known answers
CNC(=O)/C=C/CN1CC(Oc2ccc(C(=O)c3c(-c4ccc(O)cc4)sc4cc(O)ccc34)cc2)C1 ... 11.3
CNC(=O)/C=C/CNCCOc1ccc(C(=O)c2c(-c3ccc(O)cc3)sc3cc(O)ccc23)cc1 ... 13.1
C=C(C)C(=O)N1CC(Oc2ccc(C(=O)c3c(-c4ccc(O)cc4)sc4cc(O)ccc34)cc2)C1 ... 23.1
COCCNC(=O)/C=C/CNCCOc1ccc(C(=O)c2c(-c3ccc(O)cc3)sc3cc(O)ccc23)cc1 ... 42.8
C=C(C)C(=O)NCCOc1ccc(C(=O)c2c(-c3ccc(O)cc3)sc3cc(O)ccc23)cc1 ... 28.7
O=C(c1ccc(OCCNC/C=C/C(=O)N2CCCCC2)cc1)c1c(-c2ccc(O)cc2)sc2cc(O)ccc12 ... 11.5
CN(C)C(=O)/C=C/CN1CC(Oc2ccc(C(=O)c3c(-c4ccc(O)cc4)sc4cc(O)ccc34)cc2)C1 ... 29.3
C=CC(=O)NCCOc1ccc(C(=O)c2c(-c3ccc(O)cc3)sc3cc(O)ccc23)cc1 ... 37.1

I: C=CC(=O)N1CC(Oc2ccc(C(=O)c3c(-c4ccc(O)cc4)sc4cc(O)ccc34)cc2)C1
II: O=C(c1ccc(OCCN2CCCCC2)cc1)c1c(-c2ccc(O)cc2)sc2cc(O)ccc12
III: O=C(c1ccc(OCCNC/C=C/C(=O)N2CCOCC2)cc1)c1c(-c2ccc(O)cc2)sc2cc(O)ccc12
IV: O=C(c1ccc(OC2CN(C/C=C/C(=O)N3CCOCC3)C2)cc1)c1c(-c2ccc(O)cc2)sc2cc(O)ccc12
**Query** Reorder the items by IC50, least to greatest. Please list each label once, in the requested order.
**Result** IV, III, II, I
(IV: 5.72 µM, III: 8.41 µM, II: 21.9 µM, I: 31.3 µM)

----------
- Tested on: Ishikawa
- assay.procedure: Antiproliferative activity against ER-positive human Ishikawa cells assessed as inhibition of cell growth incubated for 48 hrs by CCK8 assay
- Format: functional, cell-based
IC50 for assorted molecules

Example cases with answers are listed next.
C=CC(=O)NCCOc1ccc(C(=O)c2c(-c3ccc(O)cc3)sc3cc(O)ccc23)cc1 ... > 100 µM
C=C(C)C(=O)N1CCN(c2ccc(C(=O)c3c(-c4ccc(O)cc4)sc4cc(O)ccc34)cc2)CC1 ... > 100 µM
C/C=C/C(=O)NCCOc1ccc(C(=O)c2c(-c3ccc(O)cc3)sc3cc(O)ccc23)cc1 ... > 100 µM

Let us move to another entry and its IC50.
**Query** # get_value(readout='IC50', item= O=C(c1ccc(OC2CN(CCCC(=O)N3CCCCC3)C2)cc1)c1c(-c2ccc(O)cc2)sc2cc(O)ccc12 )
**Result** > 50 µM

----------
- Test system: MCF7
- assay.procedure: Antiproliferative activity against ER-positive human MCF7 cells assessed as inhibition of cell growth incubated for 48 hrs by CCK8 assay
- Format: functional, cell-based
- assay.conditions: MCF7, 48 h
pIC50: −log10 of the molar value.
value.kind: pIC50

Some compounds with known pIC50 results, for comparison:
C=C(C)C(=O)N1CCN(c2ccc(C(=O)c3c(-c4ccc(O)cc4)sc4cc(O)ccc34)cc2)CC1 ... < 4.30
C/C=C/C(=O)NCCOc1ccc(C(=O)c2c(-c3ccc(O)cc3)sc3cc(O)ccc23)cc1 ... < 4.30
O=C(c1ccc(OC2CN(C/C=C/C(=O)N3CCC3)C2)cc1)c1c(-c2ccc(O)cc2)sc2cc(O)ccc12 ... 4.63
CN(C)C(=O)/C=C/CNCCOc1ccc(C(=O)c2c(-c3ccc(O)cc3)sc3cc(O)ccc23)cc1 ... < 4.30

The record that follows has no pIC50 shown yet.
**Query** What does the record list as pIC50 for C=CC(=O)N1CCN(c2ccc(C(=O)c3c(-c4ccc(O)cc4)sc4cc(O)ccc34)cc2)CC1 ?
**Result** < 4.30
